Test system: Human immunodeficiency virus 1
Test protocol: Antiviral activity against drug-resistant HIV-1 harboring RT Y188L mutant infected in human MT4 cells assessed as protection against virus-induced cytopathicity measured after 5 days post-infection by MTT assay
Type: functional, organism-based
Measurement parameters: Human immunodeficiency virus 1, MT4, 120 h
Reported pEC50 by item:
Please treat pEC50 as minus the base-10 logarithm of the molar concentration.

Worked examples, 2 compounds total:
In [3]: df
Out[3]:
                                item_smiles  readout_kind  recorded_result
0  [2H]C([2H])([2H])c1cc(C#N)cc(C)c1Oc1nc(NC2CCN(Cc3ccc(S(N)(=O)=O)cc3)CC2)nc2ccsc12         pEC50             7.92
1  [2H]C([2H])([2H])c1cc(C#N)cc(C)c1Oc1nc(NC2CCN(Cc3ccc(S(N)(=O)=O)cc3)CC2)nc2scnc12         pEC50             7.34

API: the following record is the query input.
Exam item: Which measured pEC50 value corresponds to [2H]C([2H])([2H])c1cc(C#N)cc(C([2H])([2H])[2H])c1Oc1nc(NC2CCN(Cc3ccc(S(N)(=O)=O)cc3)CC2)nc2ccccc12 ?
Marked response: 6.82
